Tested on: Mycobacterium tuberculosis
Assay: Cornell M. t heat shock assay; further: in the data most compounds retested in dose-response had high values
Assay type: functional, organism-based
Design: dose or concentration left out as unconfirmed
About 950 (1.4%) of roughly 69,000 compounds showed an effect of 50% or more. The entries come from a sample that favours strong results as a whole.
TEST READOUT: Percent Effect (%)
One number for each entry, in %.

Give Percent Effect for each of the items listed below.
1. COc1ccccc1CC(=O)N1CCCC(n2nc(C)nc2C)C1 (stereo unspecified)
2. CCSc1ccccc1C(=O)N(CCOC)Cc1ccoc1
3. CCCC(=O)N(CCCN1CCOCC1)c1nc2c(C)ccc(Cl)c2s1.Cl
4. CNC(=O)C1CNCCN1C(=O)c1ccc(C(F)(F)F)nc1C.Cl (stereo unspecified)

Solution:
[-10.87, -23.21, 99.14, 13.87]

Parameter requested: Percent Effect. Apply to each item below.
1. CCCC(=O)N(CCCN1CCOCC1)c1nc2c(C)c(C)ccc2s1.Cl
2. CCCC(=O)N(CCCN1CCOCC1)c1nc2c(Cl)cccc2s1.Cl

Solution:
1: 46.86; 2: 25.9

----------
System: Mycobacterium tuberculosis
Assay: Cornell M. t heat shock assay; further: in the data most compounds retested in dose-response had high values
Assay type: functional, organism-based
Set-up: dose or concentration left out as unconfirmed
The whole screen tested about 69,000 compounds, of which about 950 (1.4%) showed an effect of 50% or more. Many of the other results were omitted from the sample, so strong results are more common in it than they were.
Label key: satisfied means Percent Effect under 10%; not satisfied means Percent Effect of 10% or more.

The following compounds have reported results that may help.
# COMPOUND, ANSWER LABEL
measured = [
    ("CC(O)CN1CC(C)(C)CN(C(=O)CCc2ccccc2)CC1=O (centres undefined)", "not satisfied"),
    ("CC(NCc1ccc(OCc2nccn2C)cc1)c1cccnc1 (centres undefined)", "satisfied"),
    ("CN(C)CCN(C(=O)Cc1ccc2c(c1)OCCO2)C1CCN(C)CC1.O=C(O)CC(O)(CC(=O)O)C(=O)O", "satisfied"),
    ("CSc1ncccc1C(=O)N1C[C@H]2CC[C@@H]1CN(C(=O)N(C)C)C2", "satisfied"),
    ("Cc1cnn(CC2CCCN2Cc2ncc(-c3ccccc3)o2)c1 (centres undefined)", "not satisfied"),
]

Exercise: Is 10% strictly greater than the compound's reported Percent Effect? compound: CC(C)NC(=O)N1CC[C@H]2[C@H]1CCN2c1ncccn1.O=C(O)C(F)(F)F
Solution: satisfied

Exercise: Here's an entry: Cc1cccc(CN2CCCn3c(nnc3Cn3cccn3)C2)n1.O=C(O)C(F)(F)F . Is its Percent Effect below 10%?
Solution: satisfied

Exercise: Threshold test, Percent Effect < 10%: Cc1cccc(CNC(Cc2ccsc2)c2nc(C)c(C)s2)n1.Cl (centres undefined)
Solution: not satisfied

Exercise: Just wondering, is Percent Effect of O=C(O)C(F)(F)F.O=C(O)C(F)(F)F.c1cncc(CN2CC[C@H]3O[C@@H](COCC4CCOCC4)CC[C@H]32)c1 below 10%?
Solution: satisfied

Exercise: State whether 10% exceeds Percent Effect recorded for COc1cc(CNCC(O)c2ccccc2)cc2c1OCO2.Cl (centres undefined) .
Solution: satisfied

----------
Test system: Mycobacterium tuberculosis
Assay: Cornell M. t heat shock assay; further: in the data most compounds retested in dose-response had high values
Format: functional, organism-based
Set-up: dose or concentration left out as unconfirmed
The campaign covered roughly 69,000 compounds. About 950 (1.4%) showed an effect of 50% or more. The entries come from a sample that favours strong results as a whole.
TEST READOUT: Percent Effect (%)
Numbers only, in %.

Here is how some compounds turned out for Percent Effect.
# COMPOUND, TEST READOUT, MEASUREMENT UNIT, RECORDED MEASUREMENT
data = [
    ("O=C(NCc1ccccn1)[C@@]12CCO[C@@H]1CCN(c1ncccn1)C2", "Percent Effect", "%", 92.45),
    ("Cc1ccc(N2N=C(C(=O)O)S(=O)(=O)c3cccnc32)cc1", "Percent Effect", "%", -6.267),
    ("COCC(=O)NCc1cc(=O)n2c(n1)CN(C)CCC2.O=C(O)C(F)(F)F", "Percent Effect", "%", 2.895),
    ("c1ccc(Oc2cccc(OC34CCCN(CC3)C4)c2)cc1 (stereo not given)", "Percent Effect", "%", 91.1),
    ("N#Cc1ccc(N2CCC3(CC2)CC(N2CCOCC2)CO3)cc1.O=C(O)C(F)(F)F (stereo not given)", "Percent Effect", "%", 25.96),
]

Hi, could you look up Percent Effect for each item in my list?
1. Cc1cnc(CNC(=O)[C@@]23CCO[C@@H]2CCN(C2CCCC2)C3)cn1.O=C(O)C(F)(F)F
2. CC(=O)N1CC[C@H]2OCC[C@@]2(C(=O)NCc2cnc(C)cn2)C1
3. Cc1noc(C)c1CN1CCC2(CC1)C(c1cnn(C)c1)CC(=O)N2C.O=C(O)C(F)(F)F (stereo not given)
4. O=c1[nH]nc(CNCc2ccc(OC34CCCN(CC3)C4)cc2)[nH]1 (stereo not given)
5. O=C(NCc1ccccn1)[C@@]12CCO[C@@H]1CCN(Cc1ccccn1)C2.O=C(O)C(F)(F)F.O=C(O)C(F)(F)F.O=C(O)C(F)(F)F
6. CN(Cc1cn2c(n1)CN(c1ncc(F)cn1)CC2)Cc1ccco1.O=C(O)C(F)(F)F.O=C(O)C(F)(F)F
7. Cc1ccc(N2N=C(C(=O)NCC3CC3)S(=O)(=O)c3cccnc32)cc1

Solution:
1: 35.39; 2: 51.19; 3: 38.42; 4: -6.374; 5: 19.83; 6: 8.494; 7: 9.457

# return Percent Effect for each item in the list
1. CCCS(=O)(=O)N1CCC2(CC1)CN(CC1CCOC1)c1ccccc12.O=C(O)C(F)(F)F (stereo not given)
2. CC(=O)N1N=C(c2cccs2)OC1C(=O)NCCc1cccc(Cl)c1 (stereo not given)

Solution:
1. 28.34
2. 62.85
